Tested on: U-251
Test method notes: NCI tumour cell line growth inhibition, 48 h
Calls of active or inactive are those of the source. Rule as the data show it: active = GI50 up to about 1.1 µM and inactive = higher.
Just give me one of these, please: yes = active, no = inactive

Could you please tell me the result logged for "CCN(CC)CCOCCOCC1(c2ccc(Cl)c(Cl)c2)CCCCC1" in this assay?
no

Just curious, what result did "Cn1c2ccccc2c2nc3ccccc3c(Cl)c21" get here?
no

For this compound, state the assay outcome: CC(CC[C@@H](O)C(C)(C)O)C1[C@@H](O)CC2(C)C3CC(O)C4C(C)(C)[C@@H](OC5OC(CO)C(O)C(O)C5O)CC[C@@]45C[C@@]35CC[C@]12C (stereo partly drawn)
no

Please state the recorded outcome for this compound: "COc1ccc(N2CCN(Cc3c(C(C)=O)[n+]([O-])c4ccccc4[n+]3[O-])CC2)cc1"
no

Called result for "CCOS(=O)(=O)c1ccc(-c2c3nc(c(-c4ccc(S(=O)(=O)OCC)cc4)c4ccc([nH]4)c(-c4ccc(S(=O)(=O)OCC)cc4)c4nc(c(-c5ccc(S(=O)(=O)OCC)cc5)c5ccc2[nH]5)C=C4)C=C3)cc1"
no

Identify the outcome logged in this assay for the compound shown: CC12OC1(C)C1C(=O)OCC1C2=O (stereo not drawn)
no

Each compound tested received a call. Report the one for "c1ccc([P+](CCCCCCCC[P+](c2ccccc2)(c2ccccc2)c2ccccc2)(c2ccccc2)c2ccccc2)cc1" .
yes

Identify the outcome logged in this assay for the compound shown: "O=C(CCc1nnc2s/c(=C\c3ccc(Cl)cc3Cl)c(=O)n12)Nc1cc(Cl)c(Cl)cc1Cl"
no

---

System: MDA-N
Test method notes: NCI tumour cell line growth inhibition, 48 h
Active and inactive are the calls of the source. No stated cut-off is given here; in the data, active = GI50 up to about 1.1 µM and inactive = higher.
Could you please report measured GI50 for the items listed next?

I am curious: what GI50 value has been reported for "CCCCCCOc1ccc(NC2=C(Cl)C(=O)c3ncccc3C2=O)cc1" ?
1.52 µM (inactive)

Return reported GI50; argument: "c1ccc(NN/N=N/c2ccc(-c3nc4ccccc4[nH]3)cc2)cc1"
29.9 µM (inactive)

Query: GI50; subject: "CCOC(=O)[C@@H](NC(=O)OC(C)(C)C)[C@@H](O)C(=O)OCC"
> 100 µM (inactive)

# input compound: CC(=O)NN(c1ccccc1)C1CCN(c2ccccc2)N1C(C)=O (stereo not given) ; wanted: its GI50
9.16 µM (inactive)

What value of GI50 has been recorded for this entry: CCC1(O)C(=O)OCc2c1cc1n(c2=O)Cc2cc3c(N)cccc3nc2-1 (stereo not given) [RS-9-Aminocamptothecin]
0.182 µM (active)

---

Can you tell me GI50 for the items I'm about to list?
Tested on: SK-MEL-28
Test method notes: NCI tumour cell line growth inhibition, 48 h
Active and inactive are the calls of the source. Cut-off read from the data, not from the text of the source: active = GI50 up to about 1.1 µM and inactive = higher.

Dear colleague, I am looking for the recorded GI50 of the following compound: "COc1cccc(/N=N/C(=NNC(=O)c2ccc(C)cc2)c2ccc(N(C)C)cc2)c1"
> 100 µM (inactive)

Consider the compound "C[Si](C)(C)/C=C/CN1C(=O)CCC1=O" and give its measured GI50.
> 100 µM (inactive)

For the compound shown here, "C/C(CC(=O)Nc1cc(C)ccc1C)=N/N=C(N)N" , give the reported GI50.
> 100 µM (inactive)

// GI50 lookup, key: "Cc1c(CC/C(=N\Nc2ccc([N+](=O)[O-])cc2[N+](=O)[O-])c2ccccc2)c2ccccc2n1C"
> 100 µM (inactive)

Given the entry "COc1ccccc1-c1cc(=O)c2ccccc2[nH]1" , report its measured GI50.
> 100 µM (inactive)

What does the data say about its GI50? Entry: "O=C(Nc1cccc(F)c1)c1cc2ccc(O)cc2o/c1=N\c1ccccc1F"
4.05 µM (inactive)

Record request: GI50 value, item "COc1cc2c3c(n(C)c(=O)c2cc1OC)-c1cc2c(cc1C3=O)OCO2"
> 66.1 µM (inactive)

Need GI50 of CCOC(=O)c1ccc(NC2Oc3cc4c(cc3C(c3cc(OC)c(OC)c(OC)c3)C2C)OCO4)cc1 (stereo not given) , thanks.
32.4 µM (inactive)

Quick one: GI50 for CC1(C)OP23(NC(=O)OC2(C(F)(F)F)c2ccccc2O3)OC1(C)C (stereo not given) ?
> 100 µM (inactive)

Can you share its GI50? I mean this compound: "O=C1C(O)=C(C(C2=C(O)C(=O)c3ccccc3C2=O)c2ccc(Cl)cc2)C(=O)c2ccccc21"
28.1 µM (inactive)

---

System: NCI-H23
Test method notes: NCI tumour cell line growth inhibition, 48 h
The source made the active and inactive calls. No stated cut-off is given here; in the data, active = GI50 up to about 1.1 µM and inactive = higher.
Response enum: T (active), F (inactive)

Assay outcome for COC(OC)[C@@H](C)[C@H](O)[C@](C)(O)C1OC(C)(C)OC(C(C)C=C(C)C)C1C (stereo not given in full) : what was it?
F

For this compound, state the assay outcome: "O=S(=O)(O)c1c(Cl)c(Cl)c(O)c2ncccc12"
F

Call for entry COC(=O)C1(C)C=C(Nc2ccccc2)C(=O)N1c1ccccc1 (stereo not given) :
F

Hi, do you know how "O=C(N/C(=C\c1ccc(Br)cc1)c1nc2ccccc2s1)c1ccccc1" came out in this test?
F

Which outcome was entered for the compound CCOc1ccc(NC(=O)CC2SC(Nc3ccc(Cl)cc3)=NC2=O)cc1 (stereo not given) in this test?
F

Hi, do you know how CC(=O)OCC1OC(n2c3c(c(-c4ccco4)c(C#N)c2=S)CCC3)C(OC(C)=O)C(OC(C)=O)C1OC(C)=O (stereo not given) came out in this test?
F

I'd appreciate the recorded outcome for "O=C(/C=N/O)c1c(-c2ccccc2)[nH]c(-c2ccccc2)c1-c1ccccc1" from this test.
F

Outcome? "Cc1noc(NS(=O)(=O)c2ccc(NC(=O)c3ccc4[nH]c5ccccc5c(=O)c4c3)cc2)c1C"
F

// outcome(item) with item = "C[Si](C)(C)/C=C/CN1C(=O)CCC1=O"
F

Per the assay record, what outcome was assigned to CCC1(O)C(=O)OCc2c1cc1n(c2=O)Cc2cc3c(N)cccc3nc2-1 (stereo not given) [RS-9-Aminocamptothecin] ?
T

---

Test system: SK-MEL-28
Test method notes: NCI tumour cell line growth inhibition, 48 h
The source made the active and inactive calls. Rule as the data show it: active = GI50 up to about 1.1 µM and inactive = higher. Non-standard residues stand in square brackets, D forms with d. Residues, ends and D or L forms follow the SMILES beside them. Ava = NCCCCC(=O)O; Mpa = O=C(O)CCS
Reported metric: GI50

Report GI50 for "CCCCCCCCCCCCCC(=O)NCC(OCC)OCC" please.
> 100 µM (inactive)

# input compound: "C=CCSC1=N/C(=C\c2ccco2)C(=O)N1CC=C" ; wanted: its GI50
72.4 µM (inactive)

# GI50 lookup, item Cc1cc(CC(O)c2ccc(Cl)c(Cl)c2)nc(O)n1 (centres undefined)
> 100 µM (inactive)

// lookup GI50 for "[C-]#[N+]C1(C(=O)OCC)CC1"
> 100 µM (inactive)

Dear colleague, I am looking for the recorded GI50 of the following compound: CN1C/C(=C\c2cccs2)C2=NN(C)C(c3cccs3)C2C1 (centres undefined)
> 100 µM (inactive)

Consider the compound shown here: BC(=O)NC(CC(C)C)C(=O)NCC(=O)NC1c2ccsc2C(=O)C1O.CN(C)C (centres undefined) What is its recorded GI50?
> 100 µM (inactive)

Can you share its GI50? I mean this compound: COC(=O)C1(C)C=C(Nc2ccccc2)C(=O)N1c1ccccc1 (centres undefined)
> 100 µM (inactive)

Data request, read-out GI50, for "CC(C)CCNC(=O)c1ccc(CNC(=O)/C=C/c2ccc3c(c2)-c2ccccc2C3)cc1"
34 µM (inactive)

What value of measured GI50 is listed for "C[N+](C)(CCNc1ccc(NCC[N+](C)(C)Cc2ccc([N+](=O)[O-])cc2)c2c1C(=O)c1c(O)ccc(O)c1C2=O)Cc1ccc([N+](=O)[O-])cc1" ?
> 50 µM (inactive)

Name the recorded GI50 for "COC(=O)c1scc(N)c1-n1ccc(=O)[nH]c1=O" .
> 100 µM (inactive)

I'd like to know its GI50. The compound in question is "COc1ccc(NC(=O)c2oc3cc(O)ccc3c(=O)c2C)c([N+](=O)[O-])c1"
> 100 µM (inactive)

Quick one: GI50 of O=C1NC(=O)C(COCc2ccccc2)C2=C1SCCC2 (centres undefined) ?
> 100 µM (inactive)

What value of GI50 has been reported for the following compound? O=c1[nH]c(=O)n(C2CC(O)C(CO)O2)cc1OCC1CCCCC1 (centres undefined)
> 100 µM (inactive)

Would you mind telling me what GI50 value was observed for "Cc1cc(Cc2c(F)c(F)c(Cc3cc(C)no3)c(F)c2F)on1" ?
> 100 µM (inactive)

Name the reported GI50 value associated with the compound "O=C(Nc1ccc(Cl)cc1)NS(=O)(=O)c1coc2ccccc2c1=O"
> 10 µM (inactive)

Query (compound): "Cc1ncc([N+](=O)[O-])n1CCNC(=O)CCCn1ccnc1[N+](=O)[O-]" ; field requested: GI50
> 100 µM (inactive)

Which GI50 value is on record for CC(NC(=O)CCS)C(=O)NC(C)C(=O)NC(Cc1c[nH]c2ccccc12)C(=O)NC(Cc1c[nH]cn1)C(=O)NC(CO)C(=O)NC(Cc1c[nH]c2ccccc12)C(=O)NCCCCC(=O)NC(C)C(=O)NC(CCC(N)=O)C(=O)NC(CCCCN)C(=O)NC(C)C(=O)NC(CCCNC(=N)N)C(=O)NC(CCCCN)C(N)=O (centres undefined) ([Mpa]AAWHSW[Ava]AQKARK-NH2; configuration not given here) ?
34.7 µM (inactive)

Give its GI50 value. Item: "c1ccc(-c2cs[s+]c2)cc1"
> 100 µM (inactive)

Any idea what GI50 was measured for "O=P1(O)c2ccccc2CSCc2ccccc21" ?
> 100 µM (inactive)
